Consider the following molecules; for each one, report its Population Healthy Nuclei (%).
tested on: U2OS; assay: Multiplex assay against U2OS; assay type: toxicity, cell-based; conditions: human, 12 h, 10 µM, compound concentration 10 uM, replicate 2
One number for each entry, in %.

# count of solved cases: 3
smiles record	quantity unit	Population Healthy Nuclei (%)
Cc1noc(-c2ccc(-c3ccc(CC(=O)O)cc3)cc2)c1NC(=O)O[C@H](C)c1ccccc1Cl	%	83
O=C1[C@H](Cc2ccc(O)cc2)N2C(=O)CCN(C(=O)NCc3ccccc3)[C@H]2CN1Cc1cccc2ccccc12	%	67
C[C@H](N)COC(=O)[C@@H](CCCCN)NC(=O)Cc1c(-c2ccc3ccccc3c2)[nH]c2c1ccc1ccccc12	%	73

We next turn to a different molecule, shown below.
Which Population Healthy Nuclei (%) is reported with U2OS for this entry: CN(C)C(=O)Cn1cc(-c2ccc(-c3cncc4ccccc34)cc2)cn1 ? 75

----------
system: U2OS; test: Multiplex assay against U2OS; type: toxicity, cell-based; details: human, 24 h, 1 µM, compound concentration 1 uM, replicate 1
Answer each item with its documented Population Membrane Permeable-Phenotype (%).
Numbers only, in %.

compound	measured value
CC(C)c1noc(N2CCC(COc3ccc(-c4ccc(S(C)(=O)=O)cc4)nc3)CC2)n1 [GSK-1292263]	5
CC(C)(C)c1cc(NC(=O)Nc2ccc(-c3cn4c(n3)sc3cc(OCCN5CCOCC5)ccc34)cc2)no1 [QUIZARTINIB]	15
COC[C@@H](c1ccc(C(F)(F)F)cc1)N1CCN(C2(C)CCN(C(=O)c3c(C)ncnc3C)CC2)C[C@@H]1C.O=C(O)/C=C\C(=O)O [VICRIVIROC MALEATE]	5
Cl.NCCc1ccc(O)c(O)c1 [DOPAMINE HYDROCHLORIDE]	7
CCCCCC(O)/C=C/[C@H]1C(=O)CC(O)C1C/C=C\CCCC(=O)O (stereo partly drawn)	3
N#Cc1c(Oc2cccc(OS(=O)(=O)CCCC(F)(F)F)c2)cccc1C(F)(F)F	4
CC(/C=C1\SC(=S)N(CCCC(=O)Nc2ccc(C(=O)O)c(O)c2)C1=O)=C\c1ccccc1	4

Please report the recorded Population Membrane Permeable-Phenotype (%) for Br.CS(=O)(=O)Nc1c(O)ccc2c1CCCC2C1=NCCN1 (stereo not drawn) . 3

----------
test system: Fibroblast; test: Multiplex assay against human fibroblast; assay type: toxicity, cell-based; settings: 24 h, 1 µM, compound concentration 1 uM, replicate 1
readout: Population Normal (%)
Answers are plain numbers, in %.

Solved cases (5 shown):
compound	readout	measured value
CN(C)C(=O)Cn1cc(-c2ccc(-c3cncc4ccccc34)cc2)cn1	Population Normal (%)	94
CN[C@@H](C)C(=O)N[C@H](C(=O)N1CCC[C@H]1C(=O)Nc1snnc1-c1ccccc1)C1CCCCC1	Population Normal (%)	97
COC[C@@H](c1ccc(C(F)(F)F)cc1)N1CCN(C2(C)CCN(C(=O)c3c(C)ncnc3C)CC2)C[C@@H]1C.O=C(O)/C=C\C(=O)O [VICRIVIROC MALEATE]	Population Normal (%)	96
CCCOc1ccc2[nH]cc(C3=CCNCC3)c2n1.Cl	Population Normal (%)	97
N#Cc1c(Oc2cccc(OS(=O)(=O)CCCC(F)(F)F)c2)cccc1C(F)(F)F	Population Normal (%)	93

Please give Population Normal (%), item by item, for the list that follows.
1. Br.CS(=O)(=O)Nc1c(O)ccc2c1CCCC2C1=NCCN1 (centres undefined)
2. CC(/C=C1\SC(=S)N(CCCC(=O)Nc2ccc(C(=O)O)c(O)c2)C1=O)=C\c1ccccc1
3. CC(C)(C)c1cc(NC(=O)Nc2ccc(-c3cn4c(n3)sc3cc(OCCN5CCOCC5)ccc34)cc2)no1
4. Cc1cnc(-c2cc(N3CCN(C(=O)CCS(C)(=O)=O)CC3)ncc2Cl)c(C)c1

98
98
98
93

----------
test system: U2OS; assay: Multiplex assay against U2OS; format: toxicity, cell-based; details: human, 24 h, 1 µM, compound concentration 1 uM, replicate 2
Rule for this label: yes (1) means Population Tubulin-Different-Phenotype (%) is less than 7%; no (0) means Population Tubulin-Different-Phenotype (%) is at least 7%.

compound	class label
CN[C@@H](C)C(=O)N[C@H](C(=O)N1CCC[C@H]1C(=O)Nc1snnc1-c1ccccc1)C1CCCCC1	no (0)

Hello, I'm reviewing records and need to know if Population Tubulin-Different-Phenotype (%) of N#Cc1cc(F)cc(-c2nc(-c3ccc(F)cn3)no2)c1 is below 7%. Could you check? yes (1)

Also, Cc1sc2c(c1C)C(c1ccc(Cl)cc1)=N[C@@H](CC(=O)NCCCCCCCCNC(=O)COc1cccc3c1C(=O)N(C1CCC(=O)NC1=O)C3=O)c1nnc(C)n1-2 (stereo partly drawn) please. yes (1)

Further, for CC(C)(C)c1cc(NC(=O)Nc2ccc(-c3cn4c(n3)sc3cc(OCCN5CCOCC5)ccc34)cc2)no1 ? yes (1)

Query CCc1cc2cc(NS(=O)(=O)c3ccc(C#N)cc3)ccc2n(CC)c1=O next yes (1)

// query: C[C@H](N)COC(=O)[C@@H](CCCCN)NC(=O)Cc1c(-c2ccc3ccccc3c2)[nH]c2c1ccc1ccccc12 yes (1)

Next compound up: Cc1cnc(-c2cc(N3CCN(C(=O)CCS(C)(=O)=O)CC3)ncc2Cl)c(C)c1 no (0)

----------
What Population Apoptotic (%) was measured for each of the following?
tested on: U2OS; experiment: Multiplex assay against U2OS; assay type: toxicity, cell-based; conditions: human, 24 h, 10 µM, compound concentration 10 uM, replicate 2
Please answer in the form of a number followed by its unit of measurement.

Working through the 5 molecules below one at a time, give Population Apoptotic (%) for each.
1. O=C1[C@H](Cc2ccc(O)cc2)N2C(=O)CCN(C(=O)NCc3ccccc3)[C@H]2CN1Cc1cccc2ccccc12
2. CN[C@@H](C)C(=O)N[C@H](C(=O)N1CCC[C@H]1C(=O)Nc1snnc1-c1ccccc1)C1CCCCC1
3. Cc1c(CC(=O)O)c2cccnc2n1Cc1ccc(S(C)(=O)=O)cc1C(F)(F)F
4. CC(C)c1noc(N2CCC(COc3ccc(-c4ccc(S(C)(=O)=O)cc4)nc3)CC2)n1
5. CCCCCC(O)/C=C/[C@H]1C(=O)CC(O)C1C/C=C\CCCC(=O)O (some centres undefined)

1. 85%
2. 92%
3. 100%
4. 66%
5. 90%

Your task in this section: give Population Apoptotic (%) for each listed record.
1. CC(C)COc1ccc(CNC(=O)N(Cc2ccc(F)cc2)C2CCN(C)CC2)cc1
2. Cc1cccc(NC(=O)CN2CCC(c3ccccn3)CC2)c1.Cl.Cl
3. CC[C@@H](C)Nc1nc(C)nc2c(-c3ccc(OC)nc3C)c(C)nn12
4. CCCOc1ccc2[nH]cc(C3=CCNCC3)c2n1.Cl

1. 79%
2. 75%
3. 92%
4. 72%

----------
test system: Fibroblast; assay: Multiplex assay against human fibroblast; type: toxicity, cell-based; conditions: 48 h, 10 µM, compound concentration 10 uM, replicate 1
Give Population Mitotic Cells (%) for every item shown.
One number for each entry, in %.

Worked examples, 5 compounds total:
compound	quantity unit	measured value
O=C(NCCN1CCC(n2c(=O)[nH]c3cc(Cl)ccc32)CC1)c1ccc(F)cc1 [HALOPEMIDE]	%	19
CCCCC(=O)N(Cc1ccc(-c2ccccc2-c2nnn[nH]2)cc1)[C@H](C(=O)O)C(C)C	%	35
Cc1cnc(-c2cc(N3CCN(C(=O)CCS(C)(=O)=O)CC3)ncc2Cl)c(C)c1	%	50
CC[C@@H](C)Nc1nc(C)nc2c(-c3ccc(OC)nc3C)c(C)nn12 [PEXACERFONT]	%	12
CN(C)C(=O)Cn1cc(-c2ccc(-c3cncc4ccccc34)cc2)cn1	%	27

For each of the items listed, what is its Population Mitotic Cells (%)?
1. CC(C)(C)c1cc(NC(=O)Nc2ccc(-c3cn4c(n3)sc3cc(OCCN5CCOCC5)ccc34)cc2)no1 [QUIZARTINIB]
2. CCC(=O)N1CCN(c2ccc(-n3c(=O)ccc4cnc5ccc(-c6cnc7ccccc7c6)cc5c43)cc2C(F)(F)F)CC1 [TORIN1]
3. COC[C@@H](c1ccc(C(F)(F)F)cc1)N1CCN(C2(C)CCN(C(=O)c3c(C)ncnc3C)CC2)C[C@@H]1C.O=C(O)/C=C\C(=O)O [VICRIVIROC MALEATE]

20
50
26

----------
tested on: HEK-293T; experiment: Multiplex assay against HEK293T; type: toxicity, cell-based; details: human, 24 h, 1 µM, compound concentration 1 uM, replicate 2
// assign satisfied if Population Fragmented Nuclei (%) falls strictly below 8%, else not satisfied (ties count as not satisfied)

The examples below pair each entry with its known result.
smiles record	class label
CC(/C=C1\SC(=S)N(CCCC(=O)Nc2ccc(C(=O)O)c(O)c2)C1=O)=C\c1ccccc1	satisfied
CCc1cc2cc(NS(=O)(=O)c3ccc(C#N)cc3)ccc2n(CC)c1=O	satisfied
CC(C)(C)c1cc(NC(=O)Nc2ccc(-c3cn4c(n3)sc3cc(OCCN5CCOCC5)ccc34)cc2)no1	satisfied
NCCc1cn(S(=O)(=O)c2c(Cl)nc3sccn23)c2ccccc12.O=C(O)C(=O)O	not satisfied
CN[C@@H](C)C(=O)N[C@H](C(=O)N1CCC[C@H]1C(=O)Nc1snnc1-c1ccccc1)C1CCCCC1	satisfied
Cc1noc(-c2ccc(-c3ccc(CC(=O)O)cc3)cc2)c1NC(=O)O[C@H](C)c1ccccc1Cl	not satisfied

Please turn your attention to the following entry.
Please determine if CC(C)c1noc(N2CCC(COc3ccc(-c4ccc(S(C)(=O)=O)cc4)nc3)CC2)n1 is below 8% in terms of Population Fragmented Nuclei (%). satisfied
